target-entity: recombinant human ACC1 (rhACC1) (Homo sapiens, UniProt Q13085, DEL44-44)
Construct: recombinant baculovirus containing full length human ACC1 cDNA
test-description: recombinant hACC1 Transcreener assay (direct inhibition of ACC1 activity)
test-context: Transcreener ADP detection FP assay, 50 μM ATP, 30 μM acetyl-CoA, 120 min at 25° C.
pIC50: −log10 of the molar value.
observation-type: pIC50

Some solved entries appear below for comparison.
{"columns": ["compound", "pIC50"],
 "data": [
  ["CC(C)(C)n1ncc2c1C(=O)CC1(CCN(C(=O)c3ccc4[nH]c(=O)[nH]c4c3)CC1)C2", 7.62],
  ["CC(C)(C)n1nc(C#N)c2c1C(=O)CC1(CCN(C(=O)c3ccc4[nH]ncc4c3)CC1)C2 [Example 2A-77]", 5.21],
  ["CC(C)(C)n1ncc2c1C(=O)CC1(CCN(C(=O)c3cnc(-c4ccccn4)[nH]3)CC1)C2 [Example 11A-50]", 6.24]
]}

(1) Cc1ccn2cc(C(=O)N3CCC4(CC3)CC(=O)c3c(cnn3C(C)C)C4)nc2c1 [Example 11A-40]
(2) Cc1nn(C)c(C(=O)N2CCC3(CC2)CC(=O)c2c(cnn2C(C)(C)C)C3)c1O [Example 11A-25]
Just curious, which one has the larger pIC50 reading, 1 or 2 ? # respond with the chosen item's label
2

(I) CC(C)n1ncc2c1C(=O)CC1(CCN(C(=O)c3cc(Cl)c4nc[nH]c4c3)CC1)C2
(II) CC(C)(C)n1ncc2c1C(=O)CC1(CCN(C(=O)c3cc(F)c4[nH]ncc4c3)CC1)C2
Just curious, which one has the larger pIC50 reading, I or II ? # respond with the chosen item's label
I
(I: 7.32, II: 6.97)

* * *

target-entity: recombinant human ACC1 (rhACC1) (Homo sapiens, UniProt Q13085, DEL44-44)
Construct: recombinant baculovirus containing full length human ACC1 cDNA
test-description: recombinant hACC1 Transcreener assay (direct inhibition of ACC1 activity)
test-context: Transcreener ADP detection FP assay, 50 μM ATP, 30 μM acetyl-CoA, 120 min at 25° C.
observation-type: IC50 (µM)

Some solved entries appear below for comparison.
{"columns": ["molecule", "IC50 (µM)"],
 "data": [
  ["CC(C)n1ncc2c1C(=O)CC1(CCN(C(=O)c3ccc4ncccc4c3O)CC1)C2 [Example 2A-69]", 0.122],
  ["CC(C)n1nc(C#N)c2c1C(=O)CC1(CCN(C(=O)c3ccc4[nH]ncc4c3)CC1)C2 [Example 2A-76]", 6.62],
  ["Cc1ccc(O)c(C(=O)N2CCC3(CC2)CC(=O)c2c(cnn2C(C)C)C3)n1 [Example 11A-49]", 13.5],
  ["CC(C)(C)n1ncc2c1C(=O)CC1(CCN(C(=O)c3nn(-c4ccccc4)nc3N)CC1)C2 [Example 11A-12]", 0.152],
  ["CC(C)(C)n1ncc2c1C(=O)CC1(CCN(C(=O)c3ccc(-n4cncn4)cc3)CC1)C2 [Example 11A-72]", 0.867],
  ["CC(C)n1ncc2c1C(=O)CC1(CCN(C(=O)c3cccc(-c4ncc[nH]4)c3)CC1)C2 [Example 11A-41]", 0.122],
  ["CC(C)n1ncc2c1C(=O)CC1(CCN(C(=O)c3ccc(N4CCOCC4)nc3)CC1)C2 [Example 11A-24]", 6.06],
  ["CC(C)n1ncc2c1C(=O)CC1(CCN(C(=O)c3ccc4cnn(C)c4c3)CC1)C2 [Example 2A-10]", 0.188],
  ["CC(C)(C)n1ncc2c1C(=O)CC1(CCN(C(=O)c3ccn4cncc4c3)CC1)C2 [Example 11A-32]", 0.155],
  ["CC(C)n1ncc2c1C(=O)CC1(CCN(C(=O)c3ccc4[nH]nc(C#N)c4c3)CC1)C2 [Example 11A-9]", 0.0344]
]}

(1) CC(C)n1ncc2c1C(=O)CC1(CCN(C(=O)c3cc(Cl)c4cn[nH]c4c3)CC1)C2 [Example 2A-65]
(2) CC(C)(C)n1ncc2c1C(=O)CC1(CCN(C(=O)c3ccc(N4CCOCC4)cn3)CC1)C2 [Example 11A-57]
(3) CC(C)(C)n1ncc2c1C(=O)CC1(CCN(C(=O)c3ccc4c(=O)[nH]ccc4c3)CC1)C2 [Example 2A-22]
(4) CC(C)n1ncc2c1C(=O)CC1(CCN(C(=O)c3c[nH]c4ccnn4c3=O)CC1)C2 [Example 11A-35]
(5) CC(C)n1ncc2c1C(=O)CC1(CCN(C(=O)c3ccn4cncc4c3)CC1)C2 [Example 11A-60]
Order the entries by their reported IC50, beginning at the minimum. In your reply, arrange the labels in the requested order.
1, 5, 3, 4, 2

(P) CC(C)n1ncc2c1C(=O)CC1(CCN(C(=O)c3cnc4cc[nH]c4c3)CC1)C2 [Example 2A-19]
(Q) CNc1nc(C)ccc1C(=O)N1CCC2(CC1)CC(=O)c1c(cnn1C(C)(C)C)C2 [Example 11A-30]
Just curious, which one has the larger IC50 reading, P or Q ? # respond with the chosen item's label
Q
(Q: 0.224 µM, P: 0.0574 µM)

* * *

target-entity: recombinant human ACC2 (rhACC2) (Homo sapiens, UniProt O00763, V2141I)
Construct: a full length Cytomax clone of ACC2 was purchased from Cambridge Bioscience Limited
Sequence (O00763 whole entry V2141I): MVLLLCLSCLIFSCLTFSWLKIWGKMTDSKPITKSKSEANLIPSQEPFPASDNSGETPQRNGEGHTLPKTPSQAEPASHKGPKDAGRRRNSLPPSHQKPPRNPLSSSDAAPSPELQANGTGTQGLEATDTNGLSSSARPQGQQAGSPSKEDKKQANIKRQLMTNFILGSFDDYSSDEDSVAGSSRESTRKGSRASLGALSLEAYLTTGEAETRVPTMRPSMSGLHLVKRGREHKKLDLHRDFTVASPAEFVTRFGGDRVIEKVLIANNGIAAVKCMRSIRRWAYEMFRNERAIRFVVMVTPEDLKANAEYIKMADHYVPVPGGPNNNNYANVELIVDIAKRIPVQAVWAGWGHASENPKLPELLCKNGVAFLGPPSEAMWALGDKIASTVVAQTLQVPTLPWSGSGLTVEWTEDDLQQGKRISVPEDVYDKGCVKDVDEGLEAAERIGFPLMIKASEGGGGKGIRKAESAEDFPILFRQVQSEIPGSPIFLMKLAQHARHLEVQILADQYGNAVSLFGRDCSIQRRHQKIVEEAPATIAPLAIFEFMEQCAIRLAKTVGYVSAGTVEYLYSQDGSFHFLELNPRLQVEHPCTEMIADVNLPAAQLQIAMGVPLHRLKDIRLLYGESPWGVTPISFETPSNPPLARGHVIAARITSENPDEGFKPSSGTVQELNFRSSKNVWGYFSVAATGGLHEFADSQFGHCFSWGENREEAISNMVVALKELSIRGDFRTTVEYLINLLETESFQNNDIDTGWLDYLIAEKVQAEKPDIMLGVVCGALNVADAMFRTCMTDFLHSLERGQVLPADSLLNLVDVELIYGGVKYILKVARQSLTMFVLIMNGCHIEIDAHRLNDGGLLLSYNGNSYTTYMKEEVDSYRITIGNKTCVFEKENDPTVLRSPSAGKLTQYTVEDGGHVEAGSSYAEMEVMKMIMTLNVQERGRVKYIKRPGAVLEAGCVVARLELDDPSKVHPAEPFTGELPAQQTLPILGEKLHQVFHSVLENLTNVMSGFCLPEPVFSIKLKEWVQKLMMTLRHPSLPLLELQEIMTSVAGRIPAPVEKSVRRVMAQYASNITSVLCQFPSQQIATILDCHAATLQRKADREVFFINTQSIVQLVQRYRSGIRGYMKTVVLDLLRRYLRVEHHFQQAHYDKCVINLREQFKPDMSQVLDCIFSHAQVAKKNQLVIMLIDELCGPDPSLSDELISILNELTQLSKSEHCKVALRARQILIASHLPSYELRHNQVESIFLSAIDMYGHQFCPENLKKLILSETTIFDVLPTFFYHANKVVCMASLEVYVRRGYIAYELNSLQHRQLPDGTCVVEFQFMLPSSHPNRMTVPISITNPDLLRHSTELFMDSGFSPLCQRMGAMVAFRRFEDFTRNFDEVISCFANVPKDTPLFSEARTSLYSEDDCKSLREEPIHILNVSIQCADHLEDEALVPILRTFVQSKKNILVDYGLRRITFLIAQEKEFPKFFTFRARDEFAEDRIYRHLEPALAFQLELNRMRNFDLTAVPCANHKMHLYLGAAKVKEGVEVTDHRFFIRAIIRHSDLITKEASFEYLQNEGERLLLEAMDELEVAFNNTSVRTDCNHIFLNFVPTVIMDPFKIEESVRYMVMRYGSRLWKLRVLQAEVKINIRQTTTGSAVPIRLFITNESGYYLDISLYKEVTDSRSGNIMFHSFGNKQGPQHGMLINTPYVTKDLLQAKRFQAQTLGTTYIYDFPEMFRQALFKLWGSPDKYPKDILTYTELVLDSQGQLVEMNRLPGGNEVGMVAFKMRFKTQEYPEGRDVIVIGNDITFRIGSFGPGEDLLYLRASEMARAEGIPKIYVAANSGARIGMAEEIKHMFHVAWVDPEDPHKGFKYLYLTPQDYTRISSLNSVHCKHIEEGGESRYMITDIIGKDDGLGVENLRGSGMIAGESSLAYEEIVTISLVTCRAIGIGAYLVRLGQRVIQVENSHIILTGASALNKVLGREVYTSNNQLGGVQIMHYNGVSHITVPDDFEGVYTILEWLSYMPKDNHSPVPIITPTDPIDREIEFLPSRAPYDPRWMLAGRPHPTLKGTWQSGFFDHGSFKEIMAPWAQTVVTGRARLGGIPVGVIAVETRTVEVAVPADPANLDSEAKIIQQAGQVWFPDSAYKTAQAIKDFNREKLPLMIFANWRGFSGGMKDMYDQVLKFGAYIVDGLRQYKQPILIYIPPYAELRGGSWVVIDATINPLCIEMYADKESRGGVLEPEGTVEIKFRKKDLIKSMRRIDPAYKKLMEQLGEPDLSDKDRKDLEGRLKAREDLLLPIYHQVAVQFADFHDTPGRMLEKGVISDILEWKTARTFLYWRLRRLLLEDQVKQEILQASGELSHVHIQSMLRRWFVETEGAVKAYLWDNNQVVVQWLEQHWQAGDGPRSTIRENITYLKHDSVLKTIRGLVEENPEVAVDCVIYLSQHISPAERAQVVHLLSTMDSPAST
test-description: recombinant hACC2 Transcreener assay (direct inhibition of ACC2 activity)
test-context: Transcreener ADP detection FP assay, 50 μM ATP, 30 μM acetyl-CoA, 50 min at 25° C.
pIC50: −log10 of the molar value.
observation-type: pIC50

(A) Cc1cc(N(C)C)ncc1C(=O)N1CCC2(CC1)CC(=O)c1c(cnn1C(C)C)C2
(B) Cn1c(=O)[nH]c2ccc(C(=O)N3CCC4(CC3)CC(=O)c3c(cnn3C(C)(C)C)C4)cc21
(C) Cc1cccn2cc(C(=O)N3CCC4(CC3)CC(=O)c3c(cnn3C(C)(C)C)C4)nc12 [Example 11A-16]
Lab note: rank above entries, pIC50 ascending. In your reply, arrange the labels in the requested order.
A, C, B
(A: 6.34, C: 6.72, B: 7.15)

(I) CC(C)n1ncc2c1C(=O)CC1(CCN(C(=O)c3cn4ccccc4n3)CC1)C2 [Example 11A-28]
(II) Cn1ncc2c(N)c(C(=O)N3CCC4(CC3)CC(=O)c3c(cnn3C(C)(C)C)C4)cnc21
Hi! Which is lower in terms of pIC50, the first one I or the second one II ? # respond with the chosen item's label
I
(I: 6.41, II: 7.16)

* * *

target-entity: recombinant human ACC1 (rhACC1) (Homo sapiens, UniProt Q13085, DEL44-44)
Construct: recombinant baculovirus containing full length human ACC1 cDNA
test-description: recombinant hACC1 Transcreener assay (direct inhibition of ACC1 activity)
test-context: Transcreener ADP detection FP assay, 50 μM ATP, 30 μM acetyl-CoA, 120 min at 25° C.
observation-type: IC50 (nM)

{"columns": ["compound", "reading-unit", "IC50"],
 "data": [
  ["CC(C)n1ncc2c1C(=O)CC1(CCN(C(=O)c3ccc(-n4cncn4)cc3)CC1)C2 [Example 11A-54]", "nM", 1500],
  ["CC(C)(C)n1ncc2c1C(=O)CC1(CCN(C(=O)c3cnc4cc[nH]c4c3)CC1)C2", "nM", 30.7]
]}

(a) CC(C)(C)n1ncc2c1C(=O)CC1(CCN(C(=O)c3cc(Cl)c4[nH]c(=O)[nH]c4c3)CC1)C2
(b) Cc1cc(C(=O)N2CCC3(CC2)CC(=O)c2c(cnn2C(C)(C)C)C3)ccc1Cl
(c) Cc1cc(N(C)C)ncc1C(=O)N1CCC2(CC1)CC(=O)c1c(cnn1C(C)C)C2
Order the records by IC50, with each subsequent value no larger than the one before. In your reply, arrange the labels in the requested order.
c, b, a

(1) CC(C)(C)n1ncc2c1C(=O)CC1(CCN(C(=O)c3cccc(-c4c[nH]cn4)c3)CC1)C2 [Example 11A-7]
(2) CC(C)(C)n1ncc2c1C(=O)CC1(CCN(C(=O)c3ccc4[nH]cnc4n3)CC1)C2 [Example 11A-68]
(3) CC(C)(C)n1ncc2c1C(=O)CC1(CCN(C(=O)c3cnc4ccnn4c3N)CC1)C2
Order the entries by their reported IC50, beginning at the minimum. In your reply, arrange the labels in the requested order.
1, 3, 2

(1) Cc1cc(C(=O)N2CCC3(CC2)CC(=O)c2c(cnn2C(C)(C)C)C3)c(N)c(C)n1 [Example 11A-38]
(2) CC(C)(C)n1nc(C#N)c2c1C(=O)CC1(CCN(C(=O)c3ccc4[nH]ncc4c3)CC1)C2 [Example 2A-78]
Hi! Which is lower in terms of IC50, the first one 1 or the second one 2 ? # respond with the chosen item's label
1
(1: 2170 nM, 2: 3840 nM)

* * *

target-entity: recombinant human ACC1 (rhACC1) (Homo sapiens, UniProt Q13085, DEL44-44)
Construct: recombinant baculovirus containing full length human ACC1 cDNA
test-description: recombinant hACC1 Transcreener assay (direct inhibition of ACC1 activity)
test-context: Transcreener ADP detection FP assay, 50 μM ATP, 30 μM acetyl-CoA, 120 min at 25° C.
observation-type: IC50 (µM)

{"columns": ["compound", "IC50, µM"],
 "data": [
  ["CC(C)n1ncc2c1C(=O)CC1(CCN(C(=O)c3cnc4[nH]ncc4c3)CC1)C2", 0.282]
]}

(a) CC(C)n1ncc2c1C(=O)CC1(CCN(C(=O)c3ccc4[nH]c(=O)[nH]c4c3)CC1)C2
(b) CC(C)(C)n1ncc2c1C(=O)CC1(CCN(C(=O)c3cccc(-c4ncc[nH]4)c3)CC1)C2 [Example 11A-64]
(c) CC(C)(C)n1ncc2c1C(=O)CC1(CCN(C(=O)c3cc4ccccn4c3)CC1)C2 [Example 11A-36]
(d) CC(C)(C)n1ncc2c1C(=O)CC1(CCN(C(=O)c3ccc4[nH]cnc4c3)CC1)C2
Order the records by IC50, with each subsequent value no larger than the one before. In your reply, arrange the labels in the requested order.
c, b, a, d
(c: 0.194 µM, b: 0.105 µM, a: 0.0537 µM, d: 0.037 µM)

(P) CC(C)(C)n1ncc2c1C(=O)CC1(CCN(C(=O)c3cccc(-n4cccn4)c3)CC1)C2 [Example 11A-17]
(Q) CC(C)n1ncc2c1C(=O)CC1(CCN(C(=O)c3ccc4cn[nH]c4c3)CC1)C2
(R) Cc1nc2c(F)cc(C(=O)N3CCC4(CC3)CC(=O)c3c(cnn3C(C)(C)C)C4)cc2[nH]1
(S) CC(C)n1ncc2c1C(=O)C(C)C1(CCN(C(=O)c3ccc4[nH]ncc4c3)CC1)C2 (racemic) [Example 4A-1]
(T) Cc1cc(C(=O)N2CCC3(CC2)CC(=O)c2c(cnn2C(C)C)C3)n(-c2cccnc2)n1 [Example 11A-4]
Order the entries by their reported IC50, beginning at the minimum. In your reply, arrange the labels in the requested order.
Q, P, R, S, T

(I) CC(C)n1ncc2c1C(=O)CC1(CCN(C(=O)c3cc4ccccn4c3)CC1)C2 [Example 11A-43]
(II) CC(C)(C)n1ncc2c1C(=O)CC1(CCN(C(=O)c3c[nH]c4ncccc34)CC1)C2 [Example 11A-19]
(III) CC(C)n1nc(C#N)c2c1C(=O)CC1(CCN(C(=O)c3ccc4[nH]cnc4c3)CC1)C2
Order the records by IC50, with each subsequent value no larger than the one before. In your reply, arrange the labels in the requested order.
III, II, I

(1) CNc1nc(C)ccc1C(=O)N1CCC2(CC1)CC(=O)c1c(cnn1C(C)C)C2 [Example 11A-46]
(2) CC(C)n1ncc2c1C(=O)C(C)C1(CCN(C(=O)c3ccc4[nH]ncc4c3)CC1)C2 (single isomer, unassigned; (+)) [Example 5A-1]
Hi! Which is lower in terms of IC50, the first one 1 or the second one 2 ? # respond with the chosen item's label
1
(1: 0.391 µM, 2: 4.48 µM)
